- Target System: Human immunodeficiency virus type 1 protease (Human immunodeficiency virus 1)
- Procedure Summary: Inhibition of human immunodeficiency virus (HIV) protease isolated enzyme assay
Measured Quantity: Ki

Prompt line: Reported Ki for `COc1ccc(C[C@@H]2[C@H](O)[C@@H](O)[C@@H](Cc3ccc(OC)cc3)N(Cc3cccc(C(=O)Nc4nc5ccccc5[nH]4)c3)C(=O)N2Cc2cccc(C(=O)Nc3nc4ccccc4[nH]3)c2)cc1` : what is it?
Response line: 0.026 nM

Prompt line: Reported Ki for `CC(C)C[C@@H]1[C@H](O)[C@@H](O)[C@@H](CC(C)C)N(Cc2cccc(C(=O)Nc3nc4ccccc4[nH]3)c2)C(=O)N1Cc1cccc(C(=O)Nc2nc3ccccc3[nH]2)c1` : what is it?
Response line: 0.3 nM

Prompt line: Reported Ki for `O=C(Nc1nc2ccccc2[nH]1)c1cccc(CN2C(=O)N(Cc3cccc(C(=O)Nc4nc5ccccc5[nH]4)c3)[C@H](C3CCCCC3)[C@H](O)[C@@H](O)[C@H]2C2CCCCC2)c1` : what is it?
Response line: 0.29 nM

====

- Target System: Human immunodeficiency virus type 1 protease (Human immunodeficiency virus 1, UniProt Q72874)
- Procedure Summary: Inhibition of human immunodeficiency virus (HIV) protease isolated enzyme assay
Measured Quantity: pKi
Note: pKi values are expressed as the negative base-10 logarithm of concentration in M.

Prompt line: Reported pKi for `CC[C@@H]1[C@H](O)[C@@H](O)[C@@H](Cc2ccccc2)N(Cc2cccc(C(=O)Nc3nc4ccccc4[nH]3)c2)C(=O)N1Cc1cccc(C(=O)Nc2nc3ccccc3[nH]2)c1` : what is it?
Response line: 10.16

Prompt line: Reported pKi for `O=C(Nc1nc2ccccc2[nH]1)c1cccc(CN2C(=O)N(Cc3cccc(C(=O)Nc4nc5ccccc5[nH]4)c3)[C@H](Cc3ccc(O)cc3)[C@H](O)[C@@H](O)[C@H]2Cc2ccc(O)cc2)c1` : what is it?
Response line: 10.46

Prompt line: Reported pKi for `Nc1ccc(C[C@@H]2[C@H](O)[C@@H](O)[C@@H](Cc3ccc(N)cc3)N(Cc3cccc(C(=O)Nc4nc5ccccc5[nH]4)c3)C(=O)N2Cc2cccc(C(=O)Nc3nc4ccccc4[nH]3)c2)cc1` : what is it?
Response line: 10.80

====

What pKi was measured for each of the following?
- Target System: UniProt:Q72874
- Procedure Summary: Inhibition of human immunodeficiency virus (HIV) protease isolated enzyme assay
Note: pKi values are expressed as the negative base-10 logarithm of concentration in M.

Prompt line: Reported pKi for `CC(C)C[C@@H]1[C@H](O)[C@@H](O)[C@@H](Cc2ccccc2)N(Cc2cccc(C(=O)Nc3nc4ccccc4[nH]3)c2)C(=O)N1Cc1cccc(C(=O)Nc2nc3ccccc3[nH]2)c1` : what is it?
Response line: 10.42

Prompt line: Reported pKi for `O=C(Nc1nc2ccccc2[nH]1)c1cccc(CN2C(=O)N(Cc3cccc(C(=O)Nc4nc5ccccc5[nH]4)c3)[C@H](Cc3ccc(OCc4ccccc4)cc3)[C@H](O)[C@@H](O)[C@H]2Cc2ccc(OCc3ccccc3)cc2)c1` : what is it?
Response line: 8.43

Prompt line: Reported pKi for `CC[C@@H]1[C@H](O)[C@@H](O)[C@@H](CC)N(Cc2cccc(C(=O)Nc3nc4ccccc4[nH]3)c2)C(=O)N1Cc1cccc(C(=O)Nc2nc3ccccc3[nH]2)c1` : what is it?
Response line: 8.35

Prompt line: Reported pKi for `CCCCCC[C@@H]1[C@H](O)[C@@H](O)[C@@H](CCCCCC)N(Cc2cccc(C(=O)Nc3nc4ccccc4[nH]3)c2)C(=O)N1Cc1cccc(C(=O)Nc2nc3ccccc3[nH]2)c1` : what is it?
Response line: 9.46

Prompt line: Reported pKi for `CCCCCC[C@@H]1[C@H](O)[C@@H](O)[C@@H](Cc2ccccc2)N(Cc2cccc(C(=O)Nc3nc4ccccc4[nH]3)c2)C(=O)N1Cc1cccc(C(=O)Nc2nc3ccccc3[nH]2)c1` : what is it?
Response line: 10.34

Prompt line: Reported pKi for `CN(C)c1ccc(C[C@@H]2[C@H](O)[C@@H](O)[C@@H](Cc3ccc(N(C)C)cc3)N(Cc3cccc(C(=O)Nc4nc5ccccc5[nH]4)c3)C(=O)N2Cc2cccc(C(=O)Nc3nc4ccccc4[nH]3)c2)cc1` : what is it?
Response line: 10.42
